molecular target: hGLP-1R (Homo sapiens, UniProt P43220); assay: cell-based or functional assay
Sequence (P43220 24-463): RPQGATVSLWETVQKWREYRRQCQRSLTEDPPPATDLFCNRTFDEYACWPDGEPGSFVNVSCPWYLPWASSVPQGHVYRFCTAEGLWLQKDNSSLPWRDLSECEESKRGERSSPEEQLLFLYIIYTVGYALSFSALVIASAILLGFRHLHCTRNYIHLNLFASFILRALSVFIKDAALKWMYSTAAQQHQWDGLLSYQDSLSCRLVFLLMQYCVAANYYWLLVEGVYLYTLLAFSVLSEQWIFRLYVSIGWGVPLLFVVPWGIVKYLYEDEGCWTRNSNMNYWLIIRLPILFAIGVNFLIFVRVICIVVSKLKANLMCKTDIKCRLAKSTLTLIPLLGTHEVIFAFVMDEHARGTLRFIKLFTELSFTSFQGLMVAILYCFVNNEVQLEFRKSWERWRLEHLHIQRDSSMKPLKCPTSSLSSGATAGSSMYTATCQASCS
metric.name: cAMP Rel EC50 (receptor-expressing HEK-293 cells, 1% HSA)

>>> obs_value("YXQGTXTSDXSIXLDXKAQXXFIEYLIEGGPSSGEPPPEEG (synthetic construct; SITE 2: note = 2-Aminoisobutyric Acid; SITE 6: note = alpha-methyl-2-fluoro-L-phenylalanine; SITE 10: note = 3-(4-Pyridyl)-L-alanine; SITE 13: note = alpha-methyl-leucine; SITE 16: note = L-ornithine; SITE 17: note = Lysine is chemically modified through conjugation of the epsil) [Example 477]")
"18.7 nM"
>>> obs_value("YXQGTXTSDXXILLDKKAQXAFIEYLEEGGPSSGAPPPE (acylated Lys, C-terminal amide, non-natural residues; synthetic construct; SITE 2: note = 2-Aminoisobutyric Acid; SITE 6: note = alpha-methyl-2-fluoro-L-phenylalanine; SITE 10: note = 3-(3-Pyridyl)-L-alanine; SITE 11: note = alpha-methyl-L-serine; SITE 17: note = Lysine is chemically modified through conjugation of the epsilon-amino group of the Lysine) [Example 465]")
"56.3 nM"
>>> obs_value("YXQGTXTSDXSIXLDXKAQXXFIEYLLEGGPSSGEPPPEEG (synthetic construct; SITE 2: note = 2-Aminoisobutyric Acid; SITE 6: note = alpha-methyl-2-fluoro-L-phenylalanine; SITE 10: note = 3-(4-Pyridyl)-L-alanine; SITE 13: note = alpha-methyl-leucine; SITE 16: note = L-ornithine; SITE 17: note = Lysine is chemically modified through conjugation of the epsil) [Example 494]")
"19.9 nM"
>>> obs_value("YXQGTXTSDXXIXLDXKAQXXFIEYLLEGGPSSGEPPPE (synthetic construct; SITE 2: note = 2-Aminoisobutyric Acid; SITE 6: note = alpha-methyl-2-fluoro-L-phenylalanine; SITE 10: note = 3-(4-Pyridyl)-L-alanine; SITE 11: note = alpha-methyl-L-serine; SITE 13: note = alpha-methyl-leucine; SITE 16: note = L-ornithine; SITE 17: note = Lysine is chemically mo) [Example 460]")
"31.1 nM"
>>> obs_value("YXQGTXTSDXXIXLDXKAQXNFIEXLIEGGPSSGEPEPEEG (synthetic construct; SITE 2: note = 2-Aminoisobutyric Acid; SITE 6: note = alpha-methyl-2-fluoro-L-phenylalanine; SITE 10: note = 3-(4-Pyridyl)-L-alanine; SITE 11: note = alpha-methyl-L-serine; SITE 13: note = alpha-methyl-leucine; SITE 16: note = L-ornithine; SITE 17: note = Lysine is chemically mo) [Example 474]")
"10.6 nM"
>>> obs_value("HXQGTXTSDXXIXLDXKAQXAFIEYLLEGGPSSGEPEPE (synthetic construct; SITE 2: note = 2-Aminoisobutyric Acid; SITE 6: note = alpha-methyl-2-fluoro-L-phenylalanine; SITE 10: note = 3-(4-Pyridyl)-L-alanine; SITE 11: note = alpha-methyl-L-serine; SITE 13: note = alpha-methyl-leucine; SITE 16: note = L-ornithine; SITE 17: note = Lysine is chemically mo) [Example 479]")
"23.5 nM"
